Tested on: AbTetR (TetR class G) (Acinetobacter baumannii AYE), ORF:695ec09f
Sequence: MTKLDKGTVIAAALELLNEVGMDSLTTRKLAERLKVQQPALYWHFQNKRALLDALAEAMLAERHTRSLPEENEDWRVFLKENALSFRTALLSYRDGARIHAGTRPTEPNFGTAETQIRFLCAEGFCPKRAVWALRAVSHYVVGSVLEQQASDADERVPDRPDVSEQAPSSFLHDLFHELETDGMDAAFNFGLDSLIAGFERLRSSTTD
Assay: EMSA
recorded endpoint: binding

CTGAAACTCCAGCGCCGCTCAATGGAGCGACTTTATCAACGATAAGGAGATGGACATATAACTTATCGGTGATAAATTGTCAAGCACTGGCGAAGGAACGTGAATGACCAAACTGGACAAGGGCACCGTGATCGCGGCGGCGCTAGAGCTGTTGAACGAGGTTGGCATGGACAGCCTGACGACGCGGAAGCTCGCTGAACGCCTCAAGGTTCAGCA (double strand) [216 bp tetR-tetA(G) fragment]; binds
CTGAAACTCCAGCGCCGCTCAATGGAGCGACTTTATCAACGATAAGGAGATGGACATATAACTTATCGGTGATAAATTGTCAAGCACTGGCGAAGGAACGTGA (double strand) [103 bp tetR-tetA(G) fragment]; binds

----------
Tested on: AbTetR (TetR class G) (Acinetobacter baumannii AYE), ORF:695ec09f
Sequence: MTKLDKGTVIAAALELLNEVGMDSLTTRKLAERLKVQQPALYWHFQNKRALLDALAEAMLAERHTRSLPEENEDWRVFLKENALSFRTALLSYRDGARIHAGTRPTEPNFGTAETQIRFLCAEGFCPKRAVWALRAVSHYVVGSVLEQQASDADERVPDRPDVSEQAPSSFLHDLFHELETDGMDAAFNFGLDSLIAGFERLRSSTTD
Test: EMSA
recorded endpoint: binding

ATCAACGATAAGGAGATGGACATATAACTTATCGGTGATAAATTGTCAAGCACTGGCGAAGGAACGTGA (double strand) [70 bp tetR-tetA(G) fragment]; binds
GCACAAGCTCACGCAGAAGCGTCGGAAGGACGGGCATGATGAGGCCGAGACCCATGGCGTCAAGACCCACGATCAGCAGGGCAATGATGGCAGAGCTGCGCACCTGAAACTCCAGCGCCGCTCAATGGAGCGACTTTATCAACGATAAGGAGATGGACATATAACTTATCGGTGATAAATTGTCAAGCACTGGCGAAGGAACGTGA (double strand) [206 bp tetR-tetA(G) fragment]; binds
CTGAAACTCCAGCGCCGCTCAATGGAGCGACTTTATCAACGATAAGGAGATGGACATATAACTTA (double strand) [65 bp tetR-tetA(G) fragment]; binds
